meta.source: ChEMBL document CHEMBL3045421

- Test system: Bacillus subtilis
- PROCEDURE_TEXT: microbe, parasite or virus in culture
- Type: functional
- STUDY_CONDITIONS: ATCC 6633, 24 h
- Description: Antibacterial activity against Bacillus subtilis ATCC 6633 assessed as growth inhibition after 24 hr by microdilution method
PROPERTY: MIC (µg/mL)

Some molecules with known MIC results, for comparison:
| MOLECULE | EXPERIMENTAL_SYSTEM | MIC [µg/mL] |
| --- | --- | --- |
| Cn1c(/C=C2\S/C(=N/c3nccs3)NC2=O)ccc1[N+](=O)[O-] | Bacillus subtilis | 0.19 |
| O=C(O)c1cn(C2CC2)c2cc(N3CCNCC3)c(F)cc2c1=O [CIPROFLOXACIN] | Bacillus subtilis | 0.19 |

[P] O=C1N/C(=N\c2nc(-c3ccccc3)cs2)S/C1=C\c1ccc([N+](=O)[O-])o1
[Q] O=C1N/C(=N\c2nccs2)S/C1=C\c1ccc([N+](=O)[O-])s1
Req: Pick one: P or Q . Which has the bigger MIC number? Please identify the chosen entry by its label.
Resp: P

* * *

Reported MIC by item:
- Test system: Escherichia coli
- PROCEDURE_TEXT: microbe, parasite or virus in culture
- Type: functional
- STUDY_CONDITIONS: ATCC 8739, 24 h
- Description: Antibacterial activity against Escherichia coli ATCC 8739 assessed as growth inhibition after 24 hr by microdilution method

Some compounds with known MIC results, for comparison:
| COMPOUND | MIC |
| --- | --- |
| COc1ccc(-c2csc(/N=C3\NC(=O)/C(=C/c4ccc([N+](=O)[O-])n4C)S3)n2)cc1 | > 100 µg/mL |
| COc1ccc(-c2csc(/N=C3\NC(=O)/C(=C/c4ccc([N+](=O)[O-])s4)S3)n2)cc1 | 100 µg/mL |
| COc1ccc(-c2csc(/N=C3\NC(=O)/C(=C/C4C(=O)Nc5ccccc54)S3)n2)cc1 (stereo not given) | 100 µg/mL |
| Cn1c(/C=C2\S/C(=N/c3nc4ccccc4s3)NC2=O)ccc1[N+](=O)[O-] | > 100 µg/mL |
| Cn1c(/C=C2\S/C(=N/c3nc(-c4ccccc4)cs3)NC2=O)ccc1[N+](=O)[O-] | > 100 µg/mL |
| O=C1N/C(=N\c2nc(-c3ccccc3)cs2)S/C1=C\c1ccc([N+](=O)[O-])s1 | > 100 µg/mL |
| COc1ccc(-c2csc(/N=C3\NC(=O)/C(=C/c4ccc([N+](=O)[O-])o4)S3)n2)cc1 | > 100 µg/mL |
| O=C1N/C(=N\c2nc3ccccc3s2)S/C1=C\C1C(=O)Nc2ccccc21 (stereo not given) | > 100 µg/mL |
| O=C1N/C(=N\c2nc3ccccc3s2)S/C1=C\c1ccc([N+](=O)[O-])s1 | > 100 µg/mL |

Req: Give the reported MIC for Cn1c(/C=C2\S/C(=N/c3nccs3)NC2=O)ccc1[N+](=O)[O-] (system: Escherichia coli).
Resp: 12.5 µg/mL

* * *

- System: Escherichia coli
- PROCEDURE_TEXT: microbe, parasite or virus in culture
- Type: functional
- STUDY_CONDITIONS: ATCC 8739, 24 h
PROPERTY: MIC (µg/mL)

[P] O=C1N/C(=N\c2nccs2)S/C1=C\c1ccc([N+](=O)[O-])o1
[Q] O=C1N/C(=N\c2nc3ccccc3s2)S/C1=C\c1ccc([N+](=O)[O-])o1
Req: Pick one: P or Q . Which has the bigger MIC number? Please identify the chosen entry by its label.
Resp: Q

* * *

- Tested on: Bacillus subtilis
- PROCEDURE_TEXT: microbe, parasite or virus in culture
- Type: functional
- STUDY_CONDITIONS: ATCC 6633, 24 h
PROPERTY: MIC (µg/mL)

| COMPOUND | TEST_RESULT |
| --- | --- |
| O=C1N/C(=N\c2nccs2)S/C1=C\C1C(=O)Nc2ccccc21 (centres undefined) | 6.25 |

[A] COc1ccc(-c2csc(/N=C3\NC(=O)/C(=C/c4ccc([N+](=O)[O-])n4C)S3)n2)cc1
[B] O=C1N/C(=N\c2nc3ccccc3s2)S/C1=C\c1ccc([N+](=O)[O-])o1
[C] O=C1N/C(=N\c2nccs2)S/C1=C\c1ccc([N+](=O)[O-])o1
Req: hey, can you rank those compounds up there by MIC? biggest number first please A complete answer lists every label in the requested sequence.
Resp: A, B, C
(A: 50 µg/mL, B: 0.39 µg/mL, C: 0.19 µg/mL)

[P] COc1ccc(-c2csc(/N=C3\NC(=O)/C(=C/c4ccc([N+](=O)[O-])o4)S3)n2)cc1
[Q] Cn1c(/C=C2\S/C(=N/c3nc(-c4ccccc4)cs3)NC2=O)ccc1[N+](=O)[O-]
Req: Pick one: P or Q . Which has the bigger MIC number? Please identify the chosen entry by its label.
Resp: Q

[1] Cn1c(/C=C2\S/C(=N/c3nc4ccccc4s3)NC2=O)ccc1[N+](=O)[O-]
[2] O=C1N/C(=N\c2nc3ccccc3s2)S/C1=C\c1ccc([N+](=O)[O-])s1
Req: Pick one: 1 or 2 . Which has the bigger MIC number? Please identify the chosen entry by its label.
Resp: 1
(1: 12.5 µg/mL, 2: 0.78 µg/mL)

* * *

- System: Helicobacter pylori
- PROCEDURE_TEXT: Antibacterial activity against Helicobacter pylori strain 2 assessed as diameter of growth inhibition zone at 64 ug/disk after 3-5 days by filter paper disk diffusion method
- Type: functional
- STUDY_CONDITIONS: read-out: DIZ
Reported zone of inhibition at 64 µg/disc by item:
Kindly answer with a numeric value in mm, unit omitted.

Some compounds with known zone of inhibition at 64 µg/disc results, for comparison:
| COMPOUND | zone of inhibition at 64 µg/disc, mm |
| --- | --- |
| O=C1N/C(=N\c2nc3ccccc3s2)S/C1=C\C1C(=O)Nc2ccccc21 (centres undefined) | 18 |
| O=C1N/C(=N\c2nccs2)S/C1=C\C1C(=O)Nc2ccccc21 (centres undefined) | 20 |
| O=C1N/C(=N\c2nc(-c3ccccc3)cs2)S/C1=C\c1ccc([N+](=O)[O-])o1 | 23 |
| COc1ccc(-c2csc(/N=C3\NC(=O)/C(=C/c4ccc([N+](=O)[O-])n4C)S3)n2)cc1 | 6 |
| O=C1N/C(=N\c2nc3ccccc3s2)S/C1=C\c1ccc([N+](=O)[O-])o1 | 30 |
| COc1ccc(-c2csc(/N=C3\NC(=O)/C(=C/c4ccc([N+](=O)[O-])s4)S3)n2)cc1 | 39 |
| COc1ccc(-c2csc(/N=C3\NC(=O)/C(=C/C4C(=O)Nc5ccccc54)S3)n2)cc1 (centres undefined) | 6 |

Req: Give the reported zone of inhibition at 64 µg/disc for Cn1c(/C=C2\S/C(=N/c3nc4ccccc4s3)NC2=O)ccc1[N+](=O)[O-] (system: Helicobacter pylori).
Resp: 35

* * *

- Tested on: Helicobacter pylori
- PROCEDURE_TEXT: Antibacterial activity against Helicobacter pylori strain 2 assessed as diameter of growth inhibition zone at 16 ug/disk after 3-5 days by filter paper disk diffusion method
- Assay type: functional
- STUDY_CONDITIONS: read-out: DIZ
PROPERTY: zone of inhibition at 16 µg/disc (mm)
Kindly answer with a numeric value in mm, unit omitted.

Some compounds with known zone of inhibition at 16 µg/disc results, for comparison:
| COMPOUND | TEST_RESULT |
| --- | --- |
| COc1ccc(-c2csc(/N=C3\NC(=O)/C(=C/c4ccc([N+](=O)[O-])n4C)S3)n2)cc1 | 6 |
| O=C1N/C(=N\c2nccs2)S/C1=C\c1ccc([N+](=O)[O-])s1 | 28 |
| O=C1N/C(=N\c2nc3ccccc3s2)S/C1=C\c1ccc([N+](=O)[O-])o1 | 24 |

Req: Give the reported zone of inhibition at 16 µg/disc for O=C1N/C(=N\c2nccs2)S/C1=C\C1C(=O)Nc2ccccc21 (centres undefined) (system: Helicobacter pylori).
Resp: 14

* * *

Reported MIC by item:
- Test system: Bacillus subtilis
- PROCEDURE_TEXT: microbe, parasite or virus in culture
- Format: functional
- STUDY_CONDITIONS: ATCC 6633, 24 h

Some compounds with known MIC results, for comparison:
| COMPOUND | EXPERIMENTAL_SYSTEM | TEST_RESULT |
| --- | --- | --- |
| O=C1N/C(=N\c2nc3ccccc3s2)S/C1=C\C1C(=O)Nc2ccccc21 (stereo not drawn) | Bacillus subtilis | > 100 µg/mL |
| COc1ccc(-c2csc(/N=C3\NC(=O)/C(=C/c4ccc([N+](=O)[O-])s4)S3)n2)cc1 | Bacillus subtilis | > 100 µg/mL |

Shift focus to the following entry.
Req: Which MIC value is on record for COc1ccc(-c2csc(/N=C3\NC(=O)/C(=C/C4C(=O)Nc5ccccc54)S3)n2)cc1 (stereo not drawn) ?
Resp: > 100 µg/mL

* * *

- Test system: Escherichia coli
- PROCEDURE_TEXT: microbe, parasite or virus in culture
- Assay type: functional
- STUDY_CONDITIONS: ATCC 8739, 24 h
PROPERTY: MIC

| COMPOUND | MIC |
| --- | --- |
| O=C1N/C(=N\c2nccs2)S/C1=C\C1C(=O)Nc2ccccc21 (stereo not drawn) | > 100 µg/mL |
| O=C1N/C(=N\c2nc(-c3ccccc3)cs2)S/C1=C\c1ccc([N+](=O)[O-])o1 | > 100 µg/mL |

Shift focus to the following entry.
Req: Which MIC value is on record for O=C1N/C(=N\c2nccs2)S/C1=C\c1ccc([N+](=O)[O-])s1 ?
Resp: > 100 µg/mL
